# pIC50 per entry
biological target: UniProt P28845; assay: In vitro inhibition of 11β-HSD1, HTRF detection of cortisol generated by human liver microsomes (biological test example 1); assay type: biochemical; set-up: detecting cortisol generated from cortisterone by human liver microsomes; from tissue; host or cells: human liver microsomes; conditions: 1 hour at 37° C., cortisone 80 nM, NADPH 200 μM, read-out: IC50, inhibitory activity on 11β-HSD 1
Sequence (P28845 whole entry): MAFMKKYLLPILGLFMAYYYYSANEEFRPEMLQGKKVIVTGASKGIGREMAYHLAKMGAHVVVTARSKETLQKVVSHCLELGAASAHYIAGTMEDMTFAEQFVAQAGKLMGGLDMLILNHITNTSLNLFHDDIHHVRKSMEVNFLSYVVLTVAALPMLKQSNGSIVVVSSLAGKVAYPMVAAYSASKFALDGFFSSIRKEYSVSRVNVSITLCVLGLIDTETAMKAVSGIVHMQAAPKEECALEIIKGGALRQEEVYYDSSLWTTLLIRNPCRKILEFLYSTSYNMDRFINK
Kindly note that pIC50 refers to -log10 of the concentration in mol/L and answer with the value alone.

Here is how some molecules turned out for pIC50.
- molecule: "C[C@@H](c1ccc(-c2ccc(N3CCC[C@@H]3C(N)=O)nn2)cc1)N1CC[C@](CC(C)(C)O)(c2ccccc2)OC1=O"
  pIC50: 7.06
- molecule: "C[C@@H](c1ccc(-c2ccc(C3(O)COC3)cc2)cc1)N1CC[C@](CC(C)(C)O)(c2ccccc2)OC1=O"
  pIC50: 7.25
- molecule: "C[C@@H](c1ccc(-c2ccc(N3CCC[C@H]3C(N)=O)nc2)cc1)N1CC[C@](CC(C)(C)O)(c2ccccc2)OC1=O"
  pIC50: 7.52
- molecule: "C[C@@H](c1ccc(-c2ccc(C3(C(N)=O)CCCCC3)nc2)cc1)N1CC[C@](CC(C)(C)O)(c2ccccc2)OC1=O"
  pIC50: 7.17
- molecule: "C[C@@H](c1ccc(-c2ccnc(C3(C(=O)N(C)C)CC3)c2)cc1)N1CC[C@](CC(C)(C)O)(c2ccccc2)OC1=O"
  pIC50: 7.33

I am curious: what pIC50 value has been reported for C[C@@H](c1ccc(-c2ccc(C3(O)CCN(C)C3=O)nc2)cc1)N1CC[C@](CC(C)(C)O)(c2ccccc2)OC1=O (stereo partly drawn) ?
7.23

Which pIC50 value belongs to `C[C@@H](c1ccc(-c2cnn([C@H]3CCOC3)c2)cc1)N1CC[C@](CC(C)(C)O)(c2ccccc2)OC1=O` ?
7.54

Tell me the measured pIC50 of `CCOC(=O)C1(c2cc(-c3ccc([C@H](C)N4CC[C@](CC(C)(C)O)(c5ccccc5)OC4=O)cc3)ccn2)CC1` , please.
6.74

Suppose we examine the molecule `C[C@@H](c1ccc(-c2ccc(C3(C#N)CC3)nn2)cc1)N1CC[C@](CC(C)(C)O)(c2ccccc2)OC1=O` ; what pIC50 value has been reported?
7.28
